Experiment: Antioxidant activity assessed as hydroxyl radical scavenging rate at 0.6 g/L relative to control
Format: functional
The following compounds are listed with their measured Activity values.
# value in %; strip the unit string

Line notation | Test readout | Observed result
O=C(Oc1ccc2c(c1)OCO2)c1cc(Cl)ccc1Cl | Activity | 58.9

In: Given "Oc1ccc2c(c1)OCO2" , state its recorded Activity.
Out: 56.2

In: Endpoint output: Activity of "O=C(Oc1ccc2c(c1)OCO2)c1cccc(Cl)c1Cl" . Value?
Out: 47.9

In: Any idea what Activity was measured for "O=C(Oc1ccc2c(c1)OCO2)c1c(Cl)cccc1Cl" ?
Out: 60.6
